Reference for the values: patent US12559465B2

Below are compounds with their IC50 as measured on UniProt:Q92887.
Sequence (Q92887 whole entry): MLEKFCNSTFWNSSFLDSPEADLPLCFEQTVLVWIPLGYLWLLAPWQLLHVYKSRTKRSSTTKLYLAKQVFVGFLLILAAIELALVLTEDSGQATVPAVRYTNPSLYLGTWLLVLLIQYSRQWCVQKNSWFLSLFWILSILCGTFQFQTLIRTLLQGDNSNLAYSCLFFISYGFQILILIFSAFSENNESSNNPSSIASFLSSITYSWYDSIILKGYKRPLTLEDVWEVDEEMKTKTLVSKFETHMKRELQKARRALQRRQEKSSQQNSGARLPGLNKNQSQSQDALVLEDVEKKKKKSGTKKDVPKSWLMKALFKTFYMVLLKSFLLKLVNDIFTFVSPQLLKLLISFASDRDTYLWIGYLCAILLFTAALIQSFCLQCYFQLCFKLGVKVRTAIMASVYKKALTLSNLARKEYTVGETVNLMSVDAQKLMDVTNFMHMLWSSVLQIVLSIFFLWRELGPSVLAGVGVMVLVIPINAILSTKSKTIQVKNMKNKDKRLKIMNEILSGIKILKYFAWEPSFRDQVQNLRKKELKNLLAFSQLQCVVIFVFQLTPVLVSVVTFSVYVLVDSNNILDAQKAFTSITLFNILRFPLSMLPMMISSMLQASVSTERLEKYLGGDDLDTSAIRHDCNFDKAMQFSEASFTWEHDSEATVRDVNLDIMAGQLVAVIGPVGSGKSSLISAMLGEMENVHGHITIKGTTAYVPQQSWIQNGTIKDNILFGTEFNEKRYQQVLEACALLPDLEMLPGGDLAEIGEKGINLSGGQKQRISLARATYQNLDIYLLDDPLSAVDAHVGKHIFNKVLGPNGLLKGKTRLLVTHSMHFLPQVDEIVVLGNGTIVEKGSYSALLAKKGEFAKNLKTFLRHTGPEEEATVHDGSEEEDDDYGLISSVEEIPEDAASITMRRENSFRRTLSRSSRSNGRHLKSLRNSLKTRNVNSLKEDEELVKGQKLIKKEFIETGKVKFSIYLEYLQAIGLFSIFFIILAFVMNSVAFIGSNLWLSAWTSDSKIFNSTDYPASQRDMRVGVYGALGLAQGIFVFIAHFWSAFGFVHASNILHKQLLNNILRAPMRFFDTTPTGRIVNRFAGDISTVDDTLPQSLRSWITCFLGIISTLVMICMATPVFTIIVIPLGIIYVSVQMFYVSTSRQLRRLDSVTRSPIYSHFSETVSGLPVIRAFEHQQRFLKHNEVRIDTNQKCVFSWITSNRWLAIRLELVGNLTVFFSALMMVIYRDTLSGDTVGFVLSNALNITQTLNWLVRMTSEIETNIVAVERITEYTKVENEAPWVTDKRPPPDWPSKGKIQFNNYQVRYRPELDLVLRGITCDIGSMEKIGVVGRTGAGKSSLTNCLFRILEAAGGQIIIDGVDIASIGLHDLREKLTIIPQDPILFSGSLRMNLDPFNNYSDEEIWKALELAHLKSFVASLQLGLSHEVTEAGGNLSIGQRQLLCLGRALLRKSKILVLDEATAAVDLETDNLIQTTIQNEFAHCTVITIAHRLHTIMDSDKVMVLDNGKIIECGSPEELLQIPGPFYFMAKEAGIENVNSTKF
measurement.kind: IC50

| structure.notation | result |
| --- | --- |
| C[C@H](NC(=O)Cn1nnc2ccc(O[C@@H]3O[C@H](C(=O)O)[C@@H](O)[C@H](O)[C@H]3O)cc2c1=O)c1ccc(OC(F)(F)F)cc1 | 83 µM |
| C[C@H](NC(=O)Cn1nnc2ccccc2c1=O)c1ccc(OC(F)(F)F)cc1 | > 200 µM |

* * *

Target: MRP2 (Canis lupus familiaris)
Sequence (A0A8I3SCV5 1-1544): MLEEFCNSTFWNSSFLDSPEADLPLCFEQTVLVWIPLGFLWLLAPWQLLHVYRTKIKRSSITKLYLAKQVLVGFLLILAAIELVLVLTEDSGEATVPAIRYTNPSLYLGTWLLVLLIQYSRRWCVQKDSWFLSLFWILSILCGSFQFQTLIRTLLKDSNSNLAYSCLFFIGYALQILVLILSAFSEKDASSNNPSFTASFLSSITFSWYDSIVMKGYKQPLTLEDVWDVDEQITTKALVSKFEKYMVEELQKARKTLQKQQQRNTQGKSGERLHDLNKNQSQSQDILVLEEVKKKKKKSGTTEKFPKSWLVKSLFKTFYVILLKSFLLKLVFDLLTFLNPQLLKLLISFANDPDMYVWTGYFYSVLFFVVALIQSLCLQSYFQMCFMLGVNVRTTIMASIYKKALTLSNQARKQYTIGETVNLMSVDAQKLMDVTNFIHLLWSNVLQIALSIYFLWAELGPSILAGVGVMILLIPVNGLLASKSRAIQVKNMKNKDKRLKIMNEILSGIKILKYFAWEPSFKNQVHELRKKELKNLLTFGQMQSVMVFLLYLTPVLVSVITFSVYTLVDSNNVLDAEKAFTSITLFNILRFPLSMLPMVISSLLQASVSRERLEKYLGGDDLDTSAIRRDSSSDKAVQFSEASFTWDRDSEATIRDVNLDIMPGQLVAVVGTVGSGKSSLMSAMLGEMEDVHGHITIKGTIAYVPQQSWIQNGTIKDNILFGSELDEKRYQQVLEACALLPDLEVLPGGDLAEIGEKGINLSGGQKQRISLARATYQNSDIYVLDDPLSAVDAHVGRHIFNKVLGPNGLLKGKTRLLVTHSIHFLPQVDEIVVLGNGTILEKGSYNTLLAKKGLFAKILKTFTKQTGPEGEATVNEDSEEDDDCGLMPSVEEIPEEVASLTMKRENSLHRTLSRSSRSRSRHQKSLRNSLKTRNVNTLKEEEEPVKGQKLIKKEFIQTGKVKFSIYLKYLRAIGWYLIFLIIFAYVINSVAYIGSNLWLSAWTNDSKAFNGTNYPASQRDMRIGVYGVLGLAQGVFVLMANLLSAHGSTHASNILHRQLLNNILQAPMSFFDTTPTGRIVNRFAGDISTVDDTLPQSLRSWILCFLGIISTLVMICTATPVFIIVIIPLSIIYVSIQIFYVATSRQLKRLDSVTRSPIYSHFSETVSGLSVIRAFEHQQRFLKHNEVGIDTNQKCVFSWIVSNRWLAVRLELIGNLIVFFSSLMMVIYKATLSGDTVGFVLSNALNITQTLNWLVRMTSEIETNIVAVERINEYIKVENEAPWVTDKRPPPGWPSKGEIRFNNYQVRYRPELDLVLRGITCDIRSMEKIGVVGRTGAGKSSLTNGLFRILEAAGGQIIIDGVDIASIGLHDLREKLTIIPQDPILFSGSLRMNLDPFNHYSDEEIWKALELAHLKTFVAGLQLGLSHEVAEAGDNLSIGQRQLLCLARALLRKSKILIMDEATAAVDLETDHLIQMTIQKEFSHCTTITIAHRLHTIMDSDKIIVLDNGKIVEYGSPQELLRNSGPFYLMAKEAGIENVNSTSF
Assay: MRP2 inhibition in membrane vesicles (dog)
Type: in vitro ADME
measurement.kind: IC50

| structure.notation | result |
| --- | --- |
| C[C@H](NC(=O)Cn1nnc2ccccc2c1=O)c1ccc(OC(F)(F)F)cc1 | > 200 µM |
